Origin of the recorded values: patent US20250340649A1

Target: T1, HER2 on the surface of HER2+ cancer cells (BT474, SKOV-3) (human, UniProt P04626 23-1255)
T1 construct: whole, on cells; also called human epidermal growth factor receptor 2
Assay: flow cytometry on BT-474 cells (HER2+), 100 nM binding sites
Assay Readout: FITC+ (%)
Answer with a number only, understood to be in %.

Binder	Assay Readout	Experimental Result
D6 anti-HER2 VHH (VHH) VHH: QVQLQESGGGLVQAGGSLTLSCAASGRTFSTYVVGWFRQAPGKERESVAAIGWASNSPYYADSVKGRFTISRDNTKNTVYLQMKSLKPDDTAVYYCAADSYPRRWDRESDFGSWGQGTQVTVSS	FITC+ (%)	98.1
F2 anti-HER2 VHH (VHH) VHH: QVQLQESGGGLVQAGGSLKLSCAASGRTLSAYVVGWFRQAPGRERESVAAIGWSTHSVYYADSVKGRFTISRDNTENTVYLQMNSLKPDDTAVYYCAADSSPRRWDRESDFGSWGQGTQVTVSS	FITC+ (%)	98.6

Task: Reported FITC+ (%) for H7 anti-HER2 VHH (VHH) VHH: QVQLQESGGGLVQAGGSLRLSCAASGHTLSTYVVAWFRQAPGKERESVAAIGWSTRSPYYADSVKGRFTISEDNTKNTVYLQMNSLKPDDTAVYYCAADSYPRRWDRESDFGSWGQGTQVTVSS : what is it?
Output: 98.3
